Where do the numbers come from? From patent US20210395256A1.

Exercise: state measured recovery at 6 h, 1 μM for each of the molecules provided.
Assay: Plasma protein binding (equilibrium dialysis), mouse
Format: in vitro ADME
Settings: pH 7.4, 6 hours dialysis
One number for each entry, in %.

Use these answered entries as a reference point.
CC(C)(O)Cc1nnc(-c2cnn3ccc(N4CCC[C@@H]4c4cc(F)ccc4F)nc23)[nH]1 [Compound 30] = 90
C[C@@H](O)c1nnc(-c2cnn3ccc(N4CCC[C@@H]4c4cc(F)ccc4F)nc23)[nH]1 [Compound 34] = 98.6
OC1CC(c2nnc(-c3cnn4ccc(N5CCC[C@@H]5c5cc(F)ccc5F)nc34)[nH]2)C1 (some centres unmarked) [Compound 31] = 94.2
C[C@@H](CO)c1nnc(-c2cnn3ccc(N4CCC[C@@H]4c4cc(F)ccc4F)nc23)[nH]1 [Compound 39] = 91.3
NC1(c2nnc(-c3cnn4ccc(N5CCC[C@@H]5c5cc(F)ccc5F)nc34)[nH]2)CCC1 [Compound 24] = 86.5
Cc1nnc(-c2cnn3ccc(N4CCCC4c4cc(F)ccc4F)nc23)[nH]1 (centres unmarked) [Comparative compound A, reference compound] = 89.4

Hi there! I need recovery at 6 h, 1 μM for each item below, if you can.
1. C[C@H](N)c1nnc(-c2cnn3ccc(N4CCC[C@@H]4c4cc(F)ccc4F)nc23)[nH]1 [Compound 11]
2. CC(C)(O)c1nnc(-c2cnn3ccc(N4CCC[C@@H]4c4cc(F)ccc4F)nc23)[nH]1 [Compound 7]

Ans.
1. 85.5
2. 89.4
